Source of measurements: the supplement of paper PMC9170038

- Test system: MS2 coat protein
- assay remarks: apparent KD of MS2 coat protein; designed switch direction (-1 OFF switch, 1 ON switch): -1; higher = weaker reporter binding
- condition parameters: Eterna round: R95; input ligand: microRNA oligo, concentration not stated
assay readout: apparent KD of MS2 coat protein (µM)

seq text	test target	numeric result
CGAUCGGAAGGAUAUACACCUCACGUCAAACGGACAACCGGACAUGAGGAUCACCCAUGUAGAAGGUCCAAAAU [Tetixeve] (puzzle: Exclusion 2)	MS2 coat protein	0.0557
CCUCUGUUAGGAUAUCAAACACUAUCUGCUCCAGAGUUAAGUGAGAAGGGACAUGAGGAUCACCCAUGUAAAAU [Isreusraar] (puzzle: Exclusion 4)	MS2 coat protein	0.0262
AUGAGCAGACGGAGAUCCAACAUGAGGAUCACCCAUGUCUCAUAAGCUUUUUGCUCAUCUUAUUGUACCUUGGUGCU [Mat - Sensor v3 - turn-off var 1 - JL Mod - D19] (puzzle: Sensor v3, turn-off variant 1)	MS2 coat protein	0.0115
